assayNotes: in vitro
measurementParameters: rat, gh3-tre-luc cells, AC50 (uM) modified / 1000
# CC50 at 24 h listing for each entry below

Which CC50 at 24 h is listed for O=c1cc(CO)occ1O ?
> 50 µM

Same for OCC#CCO
> 90 µM

Same for O=C(CCBr)N1CCN(C(=O)CCBr)CC1
> 50 µM

Same for Oc1cc(O)c2c(c1)O[C@H](c1ccc(O)c(O)c1)[C@H](O)C2 [(-)-Epicatechin]
> 50 µM

Same for CCNc1nc(Cl)nc(NC(C)(C)C)n1
> 90 µM

Same for CCC(C)C(C)=O (stereo not shown)
> 90 µM

Same for Cc1onc(-c2ccccc2Cl)c1C(=O)N[C@@H]1C(=O)N2[C@@H]1SC(C)(C)[C@@H]2C(=O)O [Cloxacillin sodium]
> 20 µM

Same for Oc1cc2c(cc1O)[C@@H]1c3ccc(O)c(O)c3OC[C@]1(O)C2
69.9 µM

Same for Oc1ccc(C(=C(Cl)Cl)c2ccc(O)cc2)cc1
> 90 µM

Same for CCCCOC(=O)c1ccccc1C(=O)O [Monobutyl phthalate]
> 90 µM
